test system: HeLa Kyoto; experiment: melting temperature (median over replicates), in situ; higher = more thermally stable; settings: cell cycle stage: G1/S;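 further: HeLa Kyoto cells synchronized by double thymidine or nocodazole block, proteins quantified by TMT10plex mass spectrometry, three independent biological replicates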
outcomeMeasure: melting temperature (°C)
The figure you give is taken to be in °C; do not add the unit.

{"columns": ["substance", "melting temperature / °C"],
 "data": [
  ["MFRFMRDVEPEDPMFLMDPFAIHRQHMSRMLSGGFGYSPFLSITDGNMPGTRPASRRMQQAGAVSPFGMLGMSGGFMDMFGMMNDMIGNMEHMTAGGNCQTFSSSTVISYSNTGDGAPKVYQETSEMRSAPGGIRETRRTVRDSDSGLEQMSIGHHIRDRAHILQRSRNHRTGDQEERQDYINLDESEAAAFDDEWRRETSRFRQQRPLEFRRLESSGAGGRRAEGPPRLAIQGPEDSPSRQSRRYDW [MLF2]", 46.2]
]}

# lookup: melting temperature of ARFGEF2
50.7

Entry MAPKGSSKQQSEEDLLLQDFSRNLSAKSSALFFGNAFIVSAIPIWLYWRIWHMDLIQSAVLYSVMTLVSTYLVAFAYKNVKFVLKHKVAQKREDAVSKEVTRKLSEADNRKMSRKEKDERILWKKNEVADYEATTFSIFYNNTLFLVVVIVASFFILKNFNPTVNYILSISASSGLIALLSTGSK [SSR3] : reported melting temperature = ?
57.8

Origin of measurements: the supplement of paper PMC5998384
